Source listed as ChEMBL document CHEMBL4373709.

Molecular target: Neurotensin receptor type 1 (Homo sapiens)
Sequence (P30989 whole entry): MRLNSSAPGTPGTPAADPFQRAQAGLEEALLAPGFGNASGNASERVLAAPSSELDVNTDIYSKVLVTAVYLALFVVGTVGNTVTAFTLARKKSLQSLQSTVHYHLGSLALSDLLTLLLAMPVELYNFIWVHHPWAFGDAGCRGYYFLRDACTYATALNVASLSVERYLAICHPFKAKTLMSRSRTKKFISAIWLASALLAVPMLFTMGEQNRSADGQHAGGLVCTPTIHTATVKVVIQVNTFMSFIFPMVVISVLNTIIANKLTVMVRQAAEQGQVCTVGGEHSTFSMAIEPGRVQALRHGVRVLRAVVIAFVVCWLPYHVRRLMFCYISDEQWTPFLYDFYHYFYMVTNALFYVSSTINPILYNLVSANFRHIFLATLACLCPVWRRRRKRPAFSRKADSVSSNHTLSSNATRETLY
Assay: Positive allosteric modulation of recombinant human NTR1 expressed in HEK293 cells assessed as increase in [125I]-neurotensin binding measured after 45 mins
Format: cell-based
parameter: EC50 (nM)
Respond with the bare value in nM.

stdin: Provide measured EC50 value, entry: COc1ccccc1C1CCN(c2nc(C3(F)CC3)nc3ccc(N(C)CCO)cc23)CC1
stdout: 140

----------
Assay: Clearance in Sprague-Dawley rat at 5 mg/kg, iv by LC-MS/MS analysis
Format: ADME, organism-based
Settings: in vivo
parameter: clearance (mL/min/kg)
Entry rule: numbers only, all in mL/min/kg.

stdin: State its clearance: COc1ccccc1C1CCN(c2nc(C3(F)CC3)nc3ccc(N(C)CCO)cc23)CC1
stdout: 81

----------
The reader will find reported Emax values listed item by item below.
Molecular target: UniProt:P30989
Assay: Allosteric modulation of human GFP-fused PK-tagged Gq-coupled NTR1 expressed in CHOK1 cells assessed as induction of NT (8 to 13) peptide-mediated beta-arrestin recruitment measured after 90 mins by pathhunter assay relative to NT (8 to 13) peptide
Assay type: cell-based
Return type: number; implicit unit %.

Solved cases below.
COc1ccccc1C1CCN(c2nc(C3CC3)nc3ccc(N4CC[C@@H](O)C4)cc23)CC1; 79
COc1ccccc1C1CCN(c2nc(C3(C(F)(F)F)CC3)nc3ccc(N(C)CCN4CCOCC4)cc23)CC1; 78
COc1ccccc1C1CCN(c2nc(C3CC3)nc3ccc(N4CCC(OC)CC4)cc23)CC1; 79

stdin: Give Emax for this entry on UniProt:P30989: COCCN(C)c1ccc2nc(C3CC3)nc(N3CCC(c4ccccc4OC)CC3)c2c1
stdout: 79
